// provenance: PubChem BioAssay (Tox21)

Assay: qHTS assay to identify small molecule agonists of the RXR signaling pathway - cell viability counter screen (AID 1159529); also: nearly all actives have a fitted effect of over 50% in size
Details: RXR-alpha-bla HEK293T viability, CellTiter-Glo, 16 h; series mostly up to 76.8 µM
Inconclusive results are not listed. Active and inactive are the calls of the source. Calls follow the shape of the dose curve; as a rule, active = well fitted cell-killing curve with a large enough effect in the repeat runs; inconclusive = weak or mixed curves, or effect the other way; inactive = no such curve, though single readings can be large or run the other way.
# output must be one of active, inactive

Study these solved cases before continuing.
molecule	classification
CN1C(=O)N(c2ccccc2Br)Cc2cnc(Nc3ccc4c(c3)OCC(CO)O4)nc21 (centres undefined)	active
COc1ncnc(NS(=O)(=O)c2ccc(N)cc2)c1OC	inactive
CCn1cc(C(=O)O)c(=O)c2cc(F)c(N3CCNCC3)cc21	inactive
CN1C(C(=O)Nc2ccccn2)=C(O)c2sccc2S1(=O)=O	inactive

[ask] I'd appreciate the recorded outcome for CCOC(=O)c1ccc(C#Cc2ccc3c(c2)C(C)(C)CCS3)nc1 from this test.
[reply] inactive

[ask] Next molecule up: C[C@@H](O[C@H]1OCCN(Cc2n[nH]c(=O)[nH]2)[C@H]1c1ccc(F)cc1)c1cc(C(F)(F)F)cc(C(F)(F)F)c1
[reply] active

[ask] Next molecule up: CCCCCC#CC(=O)OC
[reply] inactive

[ask] Next molecule up: CCOC(=O)OC(C)OC(=O)[C@@H]1N2C(=O)[C@@H](NC(=O)[C@H](N)c3ccccc3)[C@H]2SC1(C)C (some centres undefined)
[reply] inactive

[ask] Next molecule up: CC(C)c1nc(CN(C)C(=O)N[C@H](C(=O)N[C@@H](Cc2ccccc2)C[C@H](O)[C@H](Cc2ccccc2)NC(=O)OCc2cncs2)C(C)C)cs1
[reply] active

====

Experiment: qHTS assay to identify small molecule HDAC inhibitors - cell viability counter screen (AID 1259365); also: nearly all actives have a fitted effect of over 50% in size
Details: HCT-116 viability, CellTiter-Glo ATP luminescence, 2 h; series mostly up to 92.4 µM
From the text: U.S. Tox21 Program National Center for Advancing Translational Sciences [NCATS] NIH Chemical Genomics Center [NCGC] U.S. Environmental Protection Agency [EPA] National Institutes of Environmental Health Sciences [NIEHS] National Toxicology Program [NTP] U.S. Food and Drug Administration [FDA] Tox21 Assay Overview: Histone deacetylases (HDACs) are a group of epigenetic enzymes that regulate gene expression by histone deacetylation. […]
The source made the active and inactive calls. Calls follow the shape of the dose curve; as a rule, active = well fitted cell-killing curve with a large enough effect in the repeat runs; inconclusive = weak or mixed curves, or effect the other way; inactive = flat fitted curve, though single readings scatter.
experimental_endpoint: outcome

Known results for compounds:
compound	outcome
CCOC(C)=O	inactive
N#CCCN(CCO)CCO	inactive
OCCN1CCN(CCCN2c3ccccc3Sc3ccc(Cl)cc32)CC1	inactive
CCOC(=O)[C@H](CCc1ccccc1)N[C@@H](C)C(=O)N(CC(=O)O)C1Cc2ccccc2C1	inactive

Please turn your attention to the following entry.
[ask] Entry CCC(C)(C)OC has what outcome?
[reply] inactive

====

Test: qHTS assay to identify small molecule agonists of the AP-1 signaling pathway (AID 1159526)
Settings: ME-180 (cervical carcinoma) AP-1-bla reporter, beta-lactamase FRET ratio, 5 h; series mostly up to 76.8 µM
Inconclusive results are not listed. Calls of active or inactive are those of the source. The call rests on the fitted dose curve.
# output must be one of Y for active, N for inactive

[ask] I'd appreciate the recorded outcome for Clc1cc(Cl)nc(Cl)n1 from this test.
[reply] N

[ask] Next molecule up: CC(=O)Oc1ccc([N+](=O)[O-])cc1CCl
[reply] N

[ask] Next molecule up: O=C(OC(=O)c1ccccc1)c1ccccc1
[reply] N

[ask] Next molecule up: C[C@@H]1CN(CCCn2c3ccccc3c3ccccc32)C[C@H](C)N1
[reply] N

[ask] Next molecule up: CCOC(=O)c1ccc(OCCN2C[C@H](O)[C@@H](O)[C@H](O)[C@H]2CO)cc1
[reply] N

[ask] Next molecule up: C=C(C)CCCC(C)CCO (stereo not drawn)
[reply] N

[ask] Next molecule up: CCCCCCCC/C=C\CCCCCCCCO
[reply] N

[ask] Next molecule up: CCCCC(CC)CN (stereo not drawn)
[reply] N

[ask] Next molecule up: CN1CCCC(n2nc(Cc3ccc(Cl)cc3)c3ccccc3c2=O)CC1 (stereo not drawn)
[reply] Y

[ask] Next molecule up: N#CCc1ccc(Cl)cc1Cl
[reply] N

[ask] Next molecule up: NCCNCCO
[reply] N

[ask] Next molecule up: CC(C)(c1ccccc1)c1ccccc1
[reply] N

[ask] Next molecule up: CCCCC(CC)COP(=O)(O)O (stereo not drawn)
[reply] Y

====

Biological target: Nuclear receptor subfamily 1 group I member 2 (Homo sapiens) (UniProt O75469)
Test: CYP3A4 induction through human pregnane X receptor (PXR) by small molecules, qHTS assay (AID 1346984); also: nearly all actives have a fitted effect of over 40% in size
Conditions: DPX-2 HepG2 PXR, CYP3A4-luciferin luminescence, 24 h; series mostly up to 46.1 µM
Inconclusive results are not listed. The source made the active and inactive calls. Calls follow the shape of the dose curve; as a rule, active = well fitted activation curve with a large enough effect in the repeat runs; inconclusive = weak or mixed curves; inactive = no such curve, though single readings can be large or run the other way.
experimental_endpoint: outcome

structure_smiles	tested_target	recorded_result
NNC(=O)CP(=O)(c1ccccc1)c1ccccc1	Nuclear receptor subfamily 1 group I member 2 (Homo sapiens) (UniProt O75469)	inactive
CC(=O)N/N=C/c1ccc([N+](=O)[O-])o1	Nuclear receptor subfamily 1 group I member 2 (Homo sapiens) (UniProt O75469)	inactive
COc1ncnc(NS(=O)(=O)c2ccc(N)cc2)c1OC	Nuclear receptor subfamily 1 group I member 2 (Homo sapiens) (UniProt O75469)	inactive
CCOC(C)=O	Nuclear receptor subfamily 1 group I member 2 (Homo sapiens) (UniProt O75469)	inactive

====

Test: qHTS assay for small molecule disruptors of the mitochondrial membrane potential (AID 720635)
Conditions: HepG2 mitochondrial membrane potential, Mito-MPS dye ratio; series mostly up to 83.2 µM
Results filed as inconclusive are left out. The source made the active and inactive calls. Calls come from the whole dose curve; as a rule, active = well fitted inhibition curve with a large enough effect in the signal ratio in the repeat runs; inconclusive = weak or mixed curves, or effect the other way; inactive = flat fitted curve, though single readings scatter; the % refers to the signal ratio.
# output must be one of active, inactive

compound	classification
Cc1ccc2c(Br)cc(Br)c(O)c2n1	active
CC[N+](CC)(CCNC(=O)C(=O)NCC[N+](CC)(CC)Cc1ccccc1Cl)Cc1ccccc1Cl	inactive
CCOC(=O)c1ccc(I)cc1	inactive
CC1(CN2CCC(n3c(=O)[nH]c4ccccc43)CC2)OCc2ccccc2-n2cccc21 (stereo not drawn)	active
C[C@@]12CCC[C@H]1[C@@H]1CC[C@H]3C[C@@H](O)CC[C@]3(C)[C@H]1CC2	inactive
CN1C(=O)N(c2ccccc2Br)Cc2cnc(Nc3ccc4c(c3)OCC(CO)O4)nc21 (stereo not drawn)	active

[ask] I'd appreciate the recorded outcome for Cc1ccc(OC(=O)c2ccccc2O)cc1 from this test.
[reply] inactive

[ask] Next compound up: c1cc(N(CC2CO2)CC2CO2)ccc1Cc1ccc(N(CC2CO2)CC2CO2)cc1 (stereo not drawn)
[reply] active

[ask] Next compound up: NCCNCCO
[reply] inactive

[ask] Next compound up: Nc1ccc(N=Nc2ccccc2)c(N)c1
[reply] active

[ask] Next compound up: Cc1cc(C)cc(N)c1
[reply] inactive

[ask] Next compound up: O=C1c2ccccc2C(=O)c2c(O)c(O)cc(O)c21
[reply] active

[ask] Next compound up: CCOC(=O)c1ccccc1C(=C1C=C(Br)C(=O)C(Br)=C1)c1cc(Br)c(O)c(Br)c1
[reply] active

[ask] Next compound up: O=c1cc(-c2ccccc2)oc2ccc3ccccc3c12
[reply] active

[ask] Next compound up: OC[C@H]1O[C@@H](n2cnc3c(=S)nc[nH]c32)[C@H](O)[C@@H]1O
[reply] active

[ask] Next compound up: COC(=O)CS
[reply] inactive

[ask] Next compound up: CC1CC(C)C(=O)C1=O (stereo not drawn)
[reply] inactive

[ask] Next compound up: O=Cc1c2ccccc2c(Cl)c2ccccc12
[reply] active

====

Experiment: Human pregnane X receptor (PXR) small molecule agonists, qHTS cell viability counter screen (AID 1346977); also: nearly all actives have a fitted effect of over 50% in size
Conditions: PXR-Luc HepG2 viability, CellTiter-Fluor, 24 h; series mostly up to 92.4 µM
Inconclusive results are not listed. The source made the active and inactive calls. Calls come from the whole dose curve; as a rule, active = well fitted cell-killing curve with a large enough effect in the repeat runs; inconclusive = weak or mixed curves, or effect the other way; inactive = flat fitted curve, though single readings scatter.

compound	outcome
COc1ccccc1N1CCN(CCCCNC(=O)c2ccc(-c3ccc(C(C)=O)cc3)cc2)CC1	inactive
C=C(C)CCCC(C)CCO (stereo not drawn)	inactive
Cc1c(C)c2c(c(C)c1OC(=O)CCC(=O)OCCO)CC[C@@](C)(CCC[C@H](C)CCC[C@H](C)CCCC(C)C)O2	inactive

====

Assay: qHTS assay for small molecules that induce genotoxicity in human embryonic kidney cells expressing luciferase-tagged ATAD5 (AID 651632); also: nearly all actives have a fitted effect of over 15% in size
Conditions: HEK293T ATAD5-luciferase induction, 16 h; series mostly up to 83.3 µM
Inconclusive results are not listed. The source made the active and inactive calls. Calls come from the whole dose curve; as a rule, active = well fitted activation curve with a large enough effect in the repeat runs; inconclusive = weak or mixed curves; inactive = no such curve, though single readings can be large or run the other way.
# output must be one of t for active, f for inactive

Study these solved cases before continuing.
molecule	classification
CCC(=O)C1CC(C(C)C)CC=C1C (stereo not drawn)	f
CCCCCC#CC(=O)OC	f
COC(=O)CS	f
Oc1cc2c(cc1O)[C@H]1c3ccc(O)c(O)c3OC[C@@]1(O)C2	f

[ask] I'd appreciate the recorded outcome for Cc1ccc(Cl)c(Nc2ccccc2C(=O)O)c1Cl from this test.
[reply] f

[ask] Next molecule up: CC1CC(C)C(=O)C1=O (stereo not drawn)
[reply] f

[ask] Next molecule up: CC1CC(OC(=O)C(O)c2ccccc2)CC(C)(C)N1C (stereo not drawn)
[reply] f

[ask] Next molecule up: CC(C)C[C@H](NC(=O)[C@H](CCc1ccccc1)NC(=O)CN1CCOCC1)C(=O)N[C@@H](Cc1ccccc1)C(=O)N[C@@H](CC(C)C)C(=O)[C@@]1(C)CO1
[reply] t

[ask] Next molecule up: C[C@@H](O[C@H]1OCCN(Cc2n[nH]c(=O)[nH]2)[C@H]1c1ccc(F)cc1)c1cc(C(F)(F)F)cc(C(F)(F)F)c1
[reply] f
